target: hERG (Homo sapiens); assay: in vitro
Sequence (Q12809 whole entry): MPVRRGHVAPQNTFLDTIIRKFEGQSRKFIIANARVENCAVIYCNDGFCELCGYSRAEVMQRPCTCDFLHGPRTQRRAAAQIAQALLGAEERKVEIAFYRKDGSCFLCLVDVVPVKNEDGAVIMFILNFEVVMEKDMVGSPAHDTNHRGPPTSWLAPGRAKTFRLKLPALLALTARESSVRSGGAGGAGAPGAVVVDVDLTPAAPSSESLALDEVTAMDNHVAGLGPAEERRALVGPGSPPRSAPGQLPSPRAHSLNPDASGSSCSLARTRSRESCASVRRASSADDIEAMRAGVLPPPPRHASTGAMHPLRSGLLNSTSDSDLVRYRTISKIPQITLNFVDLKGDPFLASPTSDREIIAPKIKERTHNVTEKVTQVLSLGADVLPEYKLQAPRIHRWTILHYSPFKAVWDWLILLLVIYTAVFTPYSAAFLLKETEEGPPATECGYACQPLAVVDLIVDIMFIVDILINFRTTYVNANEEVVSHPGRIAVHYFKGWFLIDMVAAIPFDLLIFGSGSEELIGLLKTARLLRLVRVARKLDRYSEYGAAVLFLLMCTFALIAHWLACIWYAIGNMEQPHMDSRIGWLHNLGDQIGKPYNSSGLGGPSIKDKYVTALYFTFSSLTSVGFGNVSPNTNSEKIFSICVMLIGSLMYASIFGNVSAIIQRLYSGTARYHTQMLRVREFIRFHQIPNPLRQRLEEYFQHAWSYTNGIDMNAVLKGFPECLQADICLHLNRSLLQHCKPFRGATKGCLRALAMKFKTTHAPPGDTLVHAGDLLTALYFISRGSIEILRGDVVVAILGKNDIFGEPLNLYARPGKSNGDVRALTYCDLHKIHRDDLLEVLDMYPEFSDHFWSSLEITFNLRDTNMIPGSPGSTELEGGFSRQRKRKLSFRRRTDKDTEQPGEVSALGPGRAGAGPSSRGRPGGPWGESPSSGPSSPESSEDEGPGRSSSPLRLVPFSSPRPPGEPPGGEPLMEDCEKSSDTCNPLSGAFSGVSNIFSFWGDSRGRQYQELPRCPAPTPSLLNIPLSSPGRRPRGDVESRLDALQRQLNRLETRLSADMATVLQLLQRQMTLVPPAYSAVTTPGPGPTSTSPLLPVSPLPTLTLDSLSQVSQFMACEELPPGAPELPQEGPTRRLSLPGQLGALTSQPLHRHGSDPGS

# molecule, value_unit, inhibition at 0.09 µM
rows = [
    ("COc1cc(N)c(Cl)cc1C(=O)NC1CCN(CCCOc2ccc(F)cc2)CC1OC (stereo not shown) [Cisapride]", "%", 87.6),
]

###

recovery values, listed per item
tested on: endogenous transporters; experiment: in vitro; settings: human, Caco-2

# item_smiles, recovery, %
measured = [
    ("CO[C@H]1/C=C/O[C@@]2(C)Oc3c(C)c(O)c4c(c3C2=O)C2=NC3(CCN(CC(C)C)CC3)NC2=C(NC(=O)/C(C)=C\\C=C\\[C@H](C)[C@H](O)[C@@H](C)[C@@H](O)[C@@H](C)[C@H](OC(C)=O)[C@@H]1C)C4=O", 64.8),
    ("CO[C@H]1/C=C/O[C@@]2(C)Oc3c(C)c(O)c4c(O)c(c(/C=N/N5CCN(C)CC5)c(O)c4c3C2=O)NC(=O)/C(C)=C\\C=C\\[C@H](C)[C@H](O)[C@@H](C)[C@@H](O)[C@@H](C)[C@H](OC(C)=O)[C@@H]1C", 79.5),
]
